Taken from the supplement of paper PMC11208160.

experiment: recombinant UMI read abundance after kanamycin selection (control-corrected) (log10(CPM+1)); higher = more efficient recombination; extreme values may be limits of the assay; sequences stand for … in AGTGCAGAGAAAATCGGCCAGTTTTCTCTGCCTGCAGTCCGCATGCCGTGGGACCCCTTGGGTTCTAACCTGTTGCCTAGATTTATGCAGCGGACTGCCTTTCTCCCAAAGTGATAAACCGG…AGGTTGGTTTCACT; site = the 11-nt donor
endpoint-name: recombinant UMI read abundance (log10)
Kindly provide the number alone.

{"residue-sequence": "CGTAATACATGGACCGGTTTTCCCGGTAATCCGTATTTGTT (site CGGAATCCTAA)", "recorded-number": 0}
{"residue-sequence": "AGGCCGGCATGGACCGGTTTTCCCGGTAATCCGTATTTGGC (site CGGCCGGCTGC)", "recorded-number": 0}
{"residue-sequence": "CGGCGTACATGGACCGGTTTTCCCGGTAATCCGTATTTGCT (site CGCCGTACTAG)", "recorded-number": 0.201}
{"residue-sequence": "CAGTAGACATGGACCGGTTTTCCCGGTAATCCGTATTTGGG (site CAGTAGACTCC)", "recorded-number": 0.653}

Task: Report recombinant UMI read abundance (log10) for CACTCTTCATGGACCGGTTTTCCCGGTAATCCGTATTTGCC (site CACTCTTCTGG) please.
Output: 2.07

* * *

experiment: recombinant barcode read abundance after kanamycin selection (control-corrected) (log10(CPM+1)); higher = more efficient recombination; sequences stand for … in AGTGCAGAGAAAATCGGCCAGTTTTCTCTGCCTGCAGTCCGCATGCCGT…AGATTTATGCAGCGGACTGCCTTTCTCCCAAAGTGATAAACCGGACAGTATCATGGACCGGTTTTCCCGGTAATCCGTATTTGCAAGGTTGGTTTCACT; site = the 11-nt target
endpoint-name: recombinant barcode read abundance (log10)
Kindly provide the number alone.

See these solved cases before continuing.
{"residue-sequence": "CCTACGCCTTGGGTTCTAACCTGTTGCCA (site TTCCGAGCTCT)", "recorded-number": 0}
{"residue-sequence": "TCGGAGGCTTGGGTTCTAACCTGTTGCTG (site TCTGAGGCTCA)", "recorded-number": 0.374}
{"residue-sequence": "CTCATTCCTTGGGTTCTAACCTGTTGCCT (site CTCATTCCTAG)", "recorded-number": 0.129}

Task: Report recombinant barcode read abundance (log10) for CCGGGGTCTTGGGTTCTAACCTGTTGCCT (site ACGGGGTCTAG) please.
Output: 0.789

Task: Also AACAGCTCTTGGGTTCTAACCTGTTGCCT (site AACAGCTCTAG) , if possible.
Output: 1.75

* * *

Documented recombinant barcode read abundance (log10) across a set of sequences
experiment: recombinant barcode read abundance after kanamycin selection (control-corrected) (log10(CPM+1)); higher = more efficient recombination; sequences stand for … in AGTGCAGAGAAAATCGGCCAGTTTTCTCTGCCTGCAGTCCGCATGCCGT…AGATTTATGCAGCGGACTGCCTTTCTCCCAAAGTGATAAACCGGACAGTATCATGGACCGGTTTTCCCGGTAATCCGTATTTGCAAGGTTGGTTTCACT; site = the 11-nt target
Kindly provide the number alone.

{"residue-sequence": "TGACGCTCTTGGGTTCTAACCTGTTGCCT (site TGGCGCTCTAG)", "recorded-number": 0.323}
{"residue-sequence": "TAGTACGCTTGGGTTCTAACCTGTTGCTT (site TAGTACGCTAA)", "recorded-number": 0.848}
{"residue-sequence": "AGGTTCCCTTGGGTTCTAACCTGTTGCTT (site AGGTTCCCTTA)", "recorded-number": 0.183}
{"residue-sequence": "AGTCACACTTGGGTTCTAACCTGTTGCTA (site AGTCACACTTA)", "recorded-number": 1.48}

Task: Report recombinant barcode read abundance (log10) for GTACGCGCTTGGGTTCTAACCTGTTGCGT (site GTACGCGCTAC) please.
Output: 1.14

Task: Also CTATGCCCTTGGGTTCTAACCTGTTGCTA (site CTATGCCCTTC) , if possible.
Output: 0.179
